- Test system: HeLa cell
- ASSAY: Cell penetration of pep(CPP)-FITC conjugate in HeLa cell line, flow cytometry (FACS)
- Type: cell-based, Homo sapiens
- PROTOCOL_CONDITIONS: HeLa cells, 20 uM FITC-fused peptide, 37° C. for an hour, control = FITC only
MEASUREMENT_NAME: cellular uptake, MFI (Mean Fluorescence Intensity)
One number for each entry.

As a guide, the following entries are already answered.
VRQHREARPALLTSRLRFIPKPDG (listed as Homo sapiens) [Pep-RIA-33]
15.04
LTSRLR (listed as Homo sapiens) [Pep-RIA-156]
12.21
ALLTSRLRFIP (listed as Homo sapiens) [Pep-RIA-139]
34.19
TSRLRF (listed as Homo sapiens) [Pep-RIA-161]
14.41

For each listed entry, give its cellular uptake, MFI (Mean Fluorescence Intensity).
1. ARPALLTSRLRFIP (listed as Homo sapiens) [Pep-RIA-104]
2. EARPALLTSRLRFIPKPD (listed as Homo sapiens) [Pep-RIA-65]
3. EARPALLTSRLRFIPKPDG (listed as Homo sapiens) [Pep-RIA-66]
4. REARPALLTSRLRFIPKPDGLRPI (listed as Homo sapiens) [Pep-RIA-63]
5. LLTSRLRFIP (listed as Homo sapiens) [Pep-RIA-146]
6. PALLTSRLRFIPK (listed as Homo sapiens) [Pep-RIA-93]
7. VRQHREARPALLTSRLRFIPKPDGLR (listed as Homo sapiens) [Pep-RIA-35]

Marked response:
22.51
12.84
13.46
19.72
17.43
22.88
13.22

For each listed entry, give its cellular uptake, MFI (Mean Fluorescence Intensity).
1. LTSRLRFIPK (listed as Homo sapiens) [Pep-RIA-96]
2. RQHREARPALLTSRLRFIPKP (listed as Homo sapiens) [Pep-RIA-24]
3. REARPALLTSRLRFIPKPDGLR (listed as Homo sapiens) [Pep-RIA-39]
4. EARPALLT (listed as Homo sapiens) [Pep-RIA-85]
5. ALLTSRLR (listed as Homo sapiens) [Pep-RIA-107]
6. QHREARPALLTSRLRFIPKPDGLR (listed as Homo sapiens) [Pep-RIA-37]
7. RPALLTSRLR (listed as Homo sapiens) [Pep-RIA-123]

Marked response:
1: 14.96; 2: 19.42; 3: 15.84; 4: 10.1; 5: 16.41; 6: 16.73; 7: 17.31

For each listed entry, give its cellular uptake, MFI (Mean Fluorescence Intensity).
1. REARPALLTSRLRFIPKPDGLRP (listed as Homo sapiens) [Pep-RIA-50]
2. TSRLRFIP (listed as Homo sapiens) [Pep-RIA-159]

Marked response:
[15.47, 12.58]
